- TGT: human alpha2C receptors (Homo sapiens)
- Sequence (P18825 whole entry): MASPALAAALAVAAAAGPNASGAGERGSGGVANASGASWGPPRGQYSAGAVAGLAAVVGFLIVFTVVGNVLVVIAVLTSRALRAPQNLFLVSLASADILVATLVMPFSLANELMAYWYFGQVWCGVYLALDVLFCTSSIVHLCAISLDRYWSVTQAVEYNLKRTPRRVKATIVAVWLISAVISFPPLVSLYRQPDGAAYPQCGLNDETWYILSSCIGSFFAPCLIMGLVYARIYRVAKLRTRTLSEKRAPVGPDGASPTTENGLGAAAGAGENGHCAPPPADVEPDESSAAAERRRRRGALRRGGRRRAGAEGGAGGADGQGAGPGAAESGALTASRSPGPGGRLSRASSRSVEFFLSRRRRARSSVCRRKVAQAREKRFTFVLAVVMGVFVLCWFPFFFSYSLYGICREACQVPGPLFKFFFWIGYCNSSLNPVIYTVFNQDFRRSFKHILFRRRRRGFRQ
- TEST: Determination of alpha2C antagonistic activity in vitro (FLIPR calcium assay)
- MEASUREMENT CONTEXT: Alpha 2C Adrenaline Kb, Kb calculated from IC50 with the Cheng-Prusoff equation; adrenaline as agonist; CHO cells, human alpha2C
PROPERTY NAME: Kb (pM)
Dear colleague, please return just the value in pM, with no unit written.

Worked cases, answers included:
| COMPOUND STRUCTURE | Kb, pM |
| --- | --- |
| Cc1nc2cc(F)c(F)cc2n1[C@H]1CCCN(C[C@H]2COc3ccccc3O2)C1 | 547 |
| CNCc1nc2ccc(Cl)cc2n1[C@H]1CCCN(C[C@H]2COc3ccccc3O2)C1 | 361000 |

Turning now to a further record.
I'd like to know its Kb. The molecule in question is CN1C(=O)N([C@H]2CCCN(C[C@H]3COc4ccccc4O3)C2)CC1(C)C
10

---

- TGT: human alpha2A receptors (Homo sapiens)
- Sequence (P08913 1-465): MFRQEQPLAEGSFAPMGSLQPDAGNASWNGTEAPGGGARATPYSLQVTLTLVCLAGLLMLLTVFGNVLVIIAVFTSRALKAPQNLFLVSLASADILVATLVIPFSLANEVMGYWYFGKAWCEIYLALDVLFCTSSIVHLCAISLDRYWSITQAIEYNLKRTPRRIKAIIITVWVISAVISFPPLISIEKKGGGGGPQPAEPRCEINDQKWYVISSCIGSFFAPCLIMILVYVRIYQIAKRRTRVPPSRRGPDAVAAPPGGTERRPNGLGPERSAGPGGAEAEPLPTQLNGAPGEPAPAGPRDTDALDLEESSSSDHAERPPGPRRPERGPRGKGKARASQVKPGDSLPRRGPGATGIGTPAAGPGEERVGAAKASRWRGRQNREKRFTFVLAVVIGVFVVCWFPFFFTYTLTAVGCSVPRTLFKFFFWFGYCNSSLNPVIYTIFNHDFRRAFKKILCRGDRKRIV
- TEST: cell-based
PROPERTY NAME: pIC50
// returns pIC50 (minus log10 of molar concentration), number only

Examples with their reported pIC50 follow.
| COMPOUND | TGT | pIC50 |
| --- | --- | --- |
| C[C@H](c1ccccc1)N1C(=O)C(=O)N([C@H]2CCCN(C[C@H]3COc4ccccc4O3)C2)C1=O [example 128] | human alpha2A receptors (Homo sapiens) | 5.05 |
| O=C1C(=O)N([C@H]2CCCN(C[C@H]3COc4ccccc4O3)C2)C(=O)N1Cc1ccccc1 [example 131] | human alpha2A receptors (Homo sapiens) | 5.24 |

Now let's try a different one.
Provide the documented pIC50 with human alpha2A receptors (Homo sapiens) as the system for Cc1nc2cccnc2n1[C@H]1CCCN(C[C@H]2COc3ccccc3O2)C1 [example 156]
5.45

---

- TGT: human alpha2C receptors (Homo sapiens)
- TEST: Determination of alpha2C antagonistic activity in vitro (FLIPR calcium assay)
pIC50: −log10 of the molar value. Counter-ions that a name gives are not always drawn.
Record rule met whenever pIC50 is at 9 or higher; record rule not met when lower.

Example entries begin here.
| COMPOUND | ASSIGNED CATEGORY |
| --- | --- |
| Cc1nc2c(F)cc(F)cc2n1[C@H]1CCCN(C[C@H]2COc3ccccc3O2)C1 [example 27] | rule not met |
| O=C1c2ccc(F)c(F)c2CN1[C@H]1CCCN(C[C@H]2COc3ccccc3O2)C1 [example 56, hydrochloride] | rule met |
| O=C1NC2(CC2)C(=O)N1[C@H]1CCCN(C[C@H]2COc3ccccc3O2)C1 [example 122] | rule met |
| O=C1c2ccccc2C(=O)N1[C@H]1CCCN(C[C@H]2COc3ccccc3O2)C1 [example 61] | rule met |
| CN1CCCN([C@H]2CCCN(C[C@H]3COc4ccccc4O3)C2)C1=O [example 54] | rule not met |

Moving on to the next compound.
Determine whether this compound has pIC50 no lower than 9: O=C1c2ncccc2CN1[C@H]1CCCN(C[C@H]2COc3ccccc3O2)C1 [example 77]
rule not met
